Test system: AA1029
Test: qHTS profiling for inhibitors of Plasmodium falciparum proliferation (AID 504749); further: nearly all actives have a fitted effect of over 60% in size
Details: P. falciparum in erythrocytes, SYBR Green DNA, 72 h; series mostly up to 28.7 µM
Records with an inconclusive call do not appear. Active and inactive are the calls of the source. The call rests on the fitted dose curve; in most records, active means well fitted inhibition curve with a large enough effect; inconclusive means small, poorly fitted or top-dose-only effect; inactive means flat fitted curve, though single readings scatter.
Outcome codes: active, inactive

> print(dat)
                                   compound     label
1                  CCOC(=O)c1ccccc1C(=O)OCC  inactive
2  CCC1(c2ccccc2)C(=O)NC(=O)N(C(=O)c2ccccc2)C1=O (centres undefined)  inactive
3               c1cc2c(c(NC3=NCCN3)c1)CCCC2  inactive
4                               CC(C)CCON=O  inactive
5  COCC(C)N(C(=O)CCl)c1c(C)csc1C (centres undefined)  inactive
6  CN1[C@@H]2CC[C@H]1CC(OC1c3ccccc3CCc3ccccc31)C2 (some centres undefined)    active
7               c1csc(C2(N3CCCCC3)CCCCC2)c1  inactive
8  C=CCN1CCC23c4c5ccc(O)c4O[C@H]2C(=O)CC[C@@]3(O)C1C5 (some centres undefined)  inactive
9   CC(=O)OC1CN2CCC1CC2 (centres undefined)  inactive

---

Tested on: CP252
Assay: qHTS profiling for inhibitors of Plasmodium falciparum proliferation (AID 504749); further: nearly all actives have a fitted effect of over 60% in size
Conditions: P. falciparum in erythrocytes, SYBR Green DNA, 72 h; series mostly up to 28.7 µM
Results filed as inconclusive are left out. Active and inactive are the calls of the source. The call rests on the fitted dose curve; in most records, active means well fitted inhibition curve with a large enough effect; inconclusive means small, poorly fitted or top-dose-only effect; inactive means flat fitted curve, though single readings scatter.
Outcome codes: class 1 (active), class 0 (inactive)

molecule	label
O=C(OCCN1CCCCC1)C(O)(c1ccccc1)c1ccccc1	class 0
CCCCCCCCCC(=O)O[C@H]1CC[C@H]2[C@@H]3CCC4=CC(=O)CC[C@]4(C)[C@H]3CC[C@]12C	class 0
C=CCC1(C(C)CCC)C(=O)N=C(S)NC1=O (stereo not drawn)	class 0
CCCC(C)(COC(N)=O)COC(=O)NC1CC1 (stereo not drawn)	class 0
c1csc(C2(N3CCCCC3)CCCCC2)c1	class 0
c1cc2c(c(NC3=NCCN3)c1)CCCC2	class 0
CN1C2CCC1CC(OC(c1ccccc1)c1ccc(Cl)cc1)C2 (stereo not drawn)	class 1
CC(=O)OO	class 0
ClC(Cl)(Cl)Cl	class 0
C[C@H]1CC[C@@H]2[C@@H](C)[C@H]3[C@H](C[C@H]4[C@@H]5CC=C6CC(O[C@@H]7O[C@H](CO)[C@H](O)[C@H](O[C@@H]8O[C@H](CO)[C@@H](O)[C@H](O)[C@H]8O)[C@H]7O[C@H]7O[C@@H](C)[C@H](O)[C@@H](O)[C@H]7O)CC[C@]6(C)[C@H]5CC[C@]34C)N2C1 (stereo partly drawn)	class 0
Clc1ccc(C2(Cn3cncn3)OCCO2)c(Cl)c1	class 0
FC(F)OC(F)(F)C(F)Cl (stereo not drawn)	class 0
CCC1(c2ccccc2)C(=O)NC(=O)N(C(=O)c2ccccc2)C1=O (stereo not drawn)	class 0
CNC1(c2ccccc2Cl)CCCCC1=O (stereo not drawn)	class 0
OC(c1ccccc1)(c1ccccc1)C1CN2CCC1CC2 (stereo not drawn)	class 0
ClC=C(Cl)Cl	class 0
NCC(O)c1cccc(O)c1 (stereo not drawn)	class 0
ClC1C(Cl)C(Cl)C(Cl)C(Cl)C1Cl (stereo not drawn)	class 0
COC1=CC=C2[C@H]3Cc4ccc(OC)c5c4[C@@]2(CCN3C)[C@H]1O5	class 0
O=[N+]([O-])C(Br)(CO)CO	class 0
O=C(NCNC(=O)NC1C(=O)NC(=O)N1CO)NC1C(=O)NC(=O)N1CO (stereo not drawn)	class 0
CCC1(CC)C(=O)NC(=O)N(C)C1=O	class 0
O=CC=O	class 0

---

System: DIV14
Experiment: qHTS profiling for inhibitors of Plasmodium falciparum proliferation (AID 504749); further: nearly all actives have a fitted effect of over 60% in size
Conditions: P. falciparum in erythrocytes, SYBR Green DNA, 72 h; series mostly up to 28.7 µM
Method: NIH National Institute of Allergy and Infectious Diseases [NIAID] NIH Chemical Genomics Center [NCGC] […] Because mature erythrocytes lack DNA, only Plasmodium-derived DNA is detected. NCGC Assay Protocol Summary: The SYBR Green viability assay was adapted from a method described previously (Plouffe et al., 2008). […] The following morning, fluorescence intensity at 485(14) nm excitation and 535(25) nm emission wavelengths was measured on an EnVision (Perkin Elmer) plate reader. […]
Results filed as inconclusive are left out. Calls of active or inactive are those of the source. Calls come from the whole dose curve; as a rule, active = well fitted inhibition curve with a large enough effect; inconclusive = small, poorly fitted or top-dose-only effect; inactive = flat fitted curve, though single readings scatter.
Outcome codes: true (1) for active, false (0) for inactive

> print(dat)
                                   compound  study.system      label
1               c1cc2c(c(NC3=NCCN3)c1)CCCC2         DIV14   true (1)
2                     CNC(=O)OCC[N+](C)(C)C         DIV14  false (0)
3  O=C(NCNC(=O)NC1C(=O)NC(=O)N1CO)NC1C(=O)NC(=O)N1CO (stereo not drawn)         DIV14  false (0)

---

Test system: PC26
Assay: qHTS profiling for inhibitors of Plasmodium falciparum proliferation (AID 504749); further: nearly all actives have a fitted effect of over 60% in size
Details: P. falciparum in erythrocytes, SYBR Green DNA, 72 h; series mostly up to 28.7 µM
Inconclusive results are not listed. Active and inactive are the calls of the source. Calls come from the whole dose curve; as a rule, active = well fitted inhibition curve with a large enough effect; inconclusive = small, poorly fitted or top-dose-only effect; inactive = flat fitted curve, though single readings scatter.
Outcome codes: t = active, f = inactive

> print(dat)
                                    compound  label
 1                                     S=C=S      f
 2  COc1ccc2c3c1O[C@H]1C(=O)CC[C@H]4[C@@H](C2)N(C)CC[C@]314      f
 3  CC1CCC(C(C)C)C(OC(=O)c2ccccc2N)C1 (configuration not stated)      f
 4                      O=[N+]([O-])c1ccccc1      f
 5  CC(=O)OC1CN2CCC1CC2 (configuration not stated)      f
 6  CCC1(c2ccccc2)C(=O)NC(=O)N(C(=O)c2ccccc2)C1=O (configuration not stated)      f
 7              N#CC(C#N)=Cc1cc(O)c(O)c(O)c1      t
 8      CCCCCCCCOC(=O)c1ccccc1C(=O)OCCCCCCCC      f
 9  [N-]=[N+]=CC(=O)OCC(N)C(=O)O (configuration not stated)      f
10                             ClC(Cl)(Cl)Cl      f
11                     CCC1(C)CC(=O)NC(=O)C1      f
12  CC12NC(Cc3ccccc31)c1ccccc12 (configuration not stated)      f

---

System: CP268
Assay: qHTS profiling for inhibitors of Plasmodium falciparum proliferation (AID 504749); further: nearly all actives have a fitted effect of over 60% in size
Conditions: P. falciparum in erythrocytes, SYBR Green DNA, 72 h; series mostly up to 28.7 µM
Records with an inconclusive call do not appear. The source made the active and inactive calls. Calls come from the whole dose curve; as a rule, active = well fitted inhibition curve with a large enough effect; inconclusive = small, poorly fitted or top-dose-only effect; inactive = flat fitted curve, though single readings scatter.
Outcome codes: YES (active), NO (inactive)

> print(dat)
                                    compound  label
 1    O=C(OCCN1CCCCC1)C(O)(c1ccccc1)c1ccccc1     NO
 2  CCNC(C)Cc1cccc(C(F)(F)F)c1 (stereo not drawn)     NO
 3  C[N+]1(C)C2CCC1CC(OC(=O)c1c[nH]c3ccccc13)C2 (stereo not drawn)     NO
 4  O=C(CS(=O)C(c1ccccc1)c1ccccc1)NO (stereo not drawn)     NO
 5         O=c1[nH]cc(N(CCCl)CCCl)c(=O)[nH]1     NO
 6                      O=[N+]([O-])c1ccccc1     NO
 7                                  [O]=[Cd]     NO
 8      NCC(O)c1cccc(O)c1 (stereo not drawn)     NO
 9  COc1ccc2c3c1O[C@H]1C(=O)CC[C@H]4[C@@H](C2)N(C)CC[C@]314     NO
10            CCC1(c2ccccc2)C(=O)NC(=O)NC1=O     NO
11      CC(N)Cc1ccc(O)cc1 (stereo not drawn)     NO
12                         O=C(O)C(Cl)(Cl)Cl     NO
13    CC(=O)OC1CN2CCC1CC2 (stereo not drawn)     NO
14  ClC1C(Cl)C(Cl)C(Cl)C(Cl)C1Cl (stereo not drawn)     NO
15                             ClC(Cl)(Cl)Cl     NO
16                       Oc1cccc[c]1[Hg][Cl]    YES
17  C[C@]12CCC(=O)C[C@@H]1CC[C@@H]1[C@@H]2CC[C@]2(C)[C@@H](O)CC[C@@H]12     NO
18                              Clc1ccccc1Cl     NO
